Assay: Toxicity liver stage against HepG2, at 10uM
Format: cell-based
Design: test concentration 10 uM, cell line HepG2-A16-CD81EGFP
Conditions: human, HepG2-A16-CD81EGFP cells; read-out: INHIBITION
parameter.measured: cytotoxicity at 10 µM (%)
Dear colleague, please return just the value in %, with no unit written.

Solved entries (count: 8):
compound=Cc1nc(-c2noc3ccc(C(=O)NCCN(C)C)cc23)co1 observed=2.25
compound="COc1ccc(N(Cc2ccco2)C(=O)C2CCOC2)cc1F (stereo unspecified)" observed=-10.8
compound="O=C(CCn1ncc2ccccc21)N1CCCC(Cc2cccnc2)C1 (stereo unspecified)" observed=-1.83
compound=Cn1c(CS(=O)(=O)Cc2ccc(Cl)cc2)cc(=O)n(C)c1=O observed=5.59
compound="COC1CCN(C(=O)COC(C)=O)CC(=O)N(C)c2ccccc21 (stereo unspecified)" observed=3.17
compound="CSCc1nc(CCNC(=O)C(N)c2c(C)n[nH]c2C)cs1 (stereo unspecified)" observed=-3.95
compound=Cc1ccccc1CC(=O)N1C[C@@H](O)[C@H](N2CCN(C)CC2)C1 observed=-4.29
compound=CCc1csc(NC(=O)NCc2ccccn2)n1 observed=-4.61

Qu. cytotoxicity at 10 µM lookup needed for Cc1ccc(NCc2cn3c(n2)CN(Cc2ccc(C)o2)CC3)nn1 , thanks.
Ans. 8.19

Qu. Bench note: what cytotoxicity at 10 µM did Fc1cnc(N2CCCC3(CCN(Cc4nccs4)C3)C2)nc1 (stereo unspecified) show?
Ans. -67.9

Qu. # cytotoxicity at 10 µM lookup, item Cc1csc2c(=O)n3c(nc12)CCN(C(=O)c1ccccn1)CC3
Ans. -10.2

---

Experiment: Toxicity liver stage against HepG2, at 10uM
Assay type: cell-based
Parameters: test concentration 10 uM, cell line HepG2-A16-CD81EGFP
Conditions: human, HepG2-A16-CD81EGFP cells; read-out: INHIBITION
parameter.measured: cytotoxicity at 10 µM (%)
Provide the reading as a plain figure in %.

Qu. Please give the measured cytotoxicity at 10 µM for this compound: COC(=O)NC1(C(=O)NCc2ccc(-c3ccn[nH]3)cc2)CCCC1
Ans. -7.65

Qu. Fill blank: measured cytotoxicity at 10 µM of the compound O=C(CC1[C@H]2CN(C(=O)CO)C[C@@H]12)Nc1cccnc1 (stereo partly drawn) is ____.
Ans. 9.19

Qu. # input compound: CNC(=O)CN1CCOCC12CCN(CCc1ccccc1)CC2 ; wanted: its cytotoxicity at 10 µM
Ans. -76.8

Qu. Suppose we examine the compound O=C(c1ccc(Cl)o1)N1CCCC1c1nnc2n1CCCCC2 (stereo not drawn) ; what cytotoxicity at 10 µM value has been reported?
Ans. -4.52

Qu. Dear colleague, I am looking for the recorded cytotoxicity at 10 µM of the following compound: CC(=O)NCC1CCC2(CCN(c3nccc(C4CCCC4)n3)CC2)O1 (stereo not drawn)
Ans. -4.43

Qu. For the compound shown here, c1cc(CN2CCc3ncc(CN4CCOCC4)n3CC2)cs1 , give the reported cytotoxicity at 10 µM.
Ans. -0.269

Qu. For the compound shown here, CCS(=O)(=O)N1CCC2(CC1)CC[C@@]1(C(=O)N(C)C)CN(C)C[C@@H]21 , give the reported cytotoxicity at 10 µM.
Ans. 10.4

---

Reported cytotoxicity at 10 µM by item:
Assay: Toxicity liver stage against HepG2, at 10uM
Type: cell-based
Set-up: test concentration 10 uM, cell line HepG2-A16-CD81EGFP
Settings: human, HepG2-A16-CD81EGFP cells; read-out: INHIBITION
The response must be a number in % with no trailing unit.

Example cases with answers are listed next.
compound="COc1c(CNC(c2ccccc2)c2ccc(F)cc2)c(C)nn1C (stereo unspecified)" unit_descriptor=% observed=-5.16
compound="CN(C(=O)CCc1cccs1)C1CCCN(C2Cc3ccccc3C2)C1 (stereo unspecified)" unit_descriptor=% observed=-4.49
compound="CCOCC1CCN(C(=O)C(c2c(F)cccc2F)N(C)C)CC1 (stereo unspecified)" unit_descriptor=% observed=-3.12
compound="Cc1cc(C2CCCN2C(=O)CN2CC3(CCNCC3)OC2=O)on1 (stereo unspecified)" unit_descriptor=% observed=16.4
compound="Cc1ccnc(N2CCC(=O)N(Cc3ccc(F)cc3)C(C(C)C)C2)n1 (stereo unspecified)" unit_descriptor=% observed=0.538
compound=Clc1ccccc1C1(c2ccnc(CC3CC3)n2)CCNCC1 unit_descriptor=% observed=-10.3

Qu. What value of cytotoxicity at 10 µM has been reported for the following compound? CN1C(=O)CO[C@H](c2ccc(NC(=O)NC(C)(C)C)cc2)[C@H]1CO
Ans. -0.973

Qu. I'd like to know its cytotoxicity at 10 µM. The compound in question is COc1c(CNCc2ccc(S(C)(=O)=O)cc2)c(C)nn1C
Ans. -8.27

Qu. Find the recorded cytotoxicity at 10 µM belonging to CC(C)(C)NS(=O)(=O)c1ccccc1CNCc1cccc(O)c1 and report it.
Ans. -7.43

Qu. Looking for the measured cytotoxicity at 10 µM of CC(C)S(=O)(=O)N1C[C@@H](O)[C@H](N(C)Cc2ccc(F)cc2)C1 , can you help?
Ans. 2.51

Qu. Record request: cytotoxicity at 10 µM value, item CCN1CCN(C(=O)c2cc(-c3ccc(C)o3)n[nH]2)[C@H]2CS(=O)(=O)C[C@H]21
Ans. -4.25

---

Test: Toxicity liver stage against HepG2, at 10uM
Type: cell-based
Design: test concentration 10 uM, cell line HepG2-A16-CD81EGFP
Conditions: human, HepG2-A16-CD81EGFP cells; read-out: INHIBITION
parameter.measured: cytotoxicity at 10 µM (%)
Answer format: numeric, % implied, no suffix.

compound="c1coc(CNc2ncc3c(n2)C2(CCNC2)COC3)c1 (configuration not stated)" unit_descriptor=% observed=10.7
compound="COc1ccccc1NC(=O)CC(C)NCCc1sc(C)nc1C (configuration not stated)" unit_descriptor=% observed=4.82
compound="Cc1cccc(CS(=O)(=O)CC(O)Cn2cccn2)c1 (configuration not stated)" unit_descriptor=% observed=-2.07
compound="COCc1cn(C2CCN(CCC(C)c3ccccc3)CC2)nn1 (configuration not stated)" unit_descriptor=% observed=6.39
compound=Cn1cc(-c2ncnc3c2CCN(C(=O)c2cnccn2)CC3)cn1 unit_descriptor=% observed=6.93
compound="CCNC(=O)NC(=O)CN1CCOC(c2ccccc2Cl)C1 (configuration not stated)" unit_descriptor=% observed=6.58

Qu. Recorded cytotoxicity at 10 µM of Cc1ncsc1C(=O)NC1CCN(CCC(=O)Nc2ccccc2)CC1 , please.
Ans. -1.39

Qu. cytotoxicity at 10 µM for CC(C)(CNc1cn[nH]c(=O)c1Cl)c1ccc2c(c1)OCCO2 ?
Ans. 2

Qu. Bench note: what cytotoxicity at 10 µM did COc1ccc(-c2nc(C3CCNCC3)cc3c2ncn3C)cc1 show?
Ans. -124

Qu. Would you mind telling me what cytotoxicity at 10 µM value was observed for CC(C)N1CCC(C(=O)N2CCc3c(nc(CC4CC4)[nH]c3=O)C2)CC1 ?
Ans. -4.92

Qu. What cytotoxicity at 10 µM value was documented for this compound, CN(Cc1ccccn1)C(=O)CC1CCOc2ccccc21 (configuration not stated) ?
Ans. 11.6

Qu. Reported cytotoxicity at 10 µM, compound O=C(NCc1ccccn1)C1CN(c2nc3ccccc3s2)CCN1 (configuration not stated) : ____
Ans. -42.8

---

Test: Toxicity liver stage against HepG2, at 10uM
Assay type: cell-based
Design: test concentration 10 uM, cell line HepG2-A16-CD81EGFP
Conditions: human, HepG2-A16-CD81EGFP cells; read-out: INHIBITION
parameter.measured: cytotoxicity at 10 µM (%)
Write it as a number; the unit % goes unstated.

Use the examples below as a reference point.
molecule="COCCN1C2(CCN(CC3CC3)C2)c2ccccc2S1(=O)=O (configuration not stated)" parameter_measured="cytotoxicity at 10 µM" observed=-130
molecule=COCCCN(C)S(=O)(=O)c1ccc(Cl)cc1C#N parameter_measured="cytotoxicity at 10 µM" observed=-38
molecule=Cc1cc(NC(=O)CCNC(C)(C)c2nc(C)c(C)s2)no1 parameter_measured="cytotoxicity at 10 µM" observed=11.7
molecule=CCS(=O)(=O)N1C[C@H](c2nc(C)no2)C[C@H]2OCC[C@H]21 parameter_measured="cytotoxicity at 10 µM" observed=-119
molecule=O=C(CN1CCc2c(ncn2C2CC2)C1)NC1CC1 parameter_measured="cytotoxicity at 10 µM" observed=1.01

Qu. Which cytotoxicity at 10 µM value belongs to Cc1cc(C(=O)N2CCCC(c3nccn3C)C2)cc(S(N)(=O)=O)c1C (configuration not stated) ?
Ans. 5.5

Qu. Which cytotoxicity at 10 µM reading was recorded for the molecule Cn1cc(C(=O)N2CCCC2c2ccc3c(c2)OCCO3)ccc1=O (configuration not stated) ?
Ans. 3.92

Qu. Return reported cytotoxicity at 10 µM; argument: CC(C)n1nccc1NC(=O)NCCc1nc2ccc(F)cc2n1C
Ans. -7.85

Qu. Give its cytotoxicity at 10 µM value. Item: Cc1cc(C(=O)NC2CCc3nc(C)cn3C2)[nH]n1 (configuration not stated)
Ans. -5.15

Qu. Would you kindly share the measured cytotoxicity at 10 µM for CC(C)(C)CCS(=O)(=O)NCCc1csc(N2CCCC2)n1 ?
Ans. 8.37

Qu. Which cytotoxicity at 10 µM is reported for this molecule? O=c1c(=CS(=O)(=O)Nc2ccccc2)[nH]c(=O)n2cccc12
Ans. 0.458

Qu. Quick one: cytotoxicity at 10 µM for Cc1cccc(C(C(=O)N2CC(c3cccnc3)C2)N(C)C)c1 (configuration not stated) ?
Ans. -4.8

Qu. Sample CC(C)c1ccc(C(=O)O)cc1S(=O)(=O)Nc1ccc(=O)n(C)c1 — what was its cytotoxicity at 10 µM?
Ans. -13.1

Qu. Consider the molecule Cc1cnccc1-n1nc(C(C)C)nc1CCc1cnccn1 and give its measured cytotoxicity at 10 µM.
Ans. 1.92

Qu. What cytotoxicity at 10 µM value was documented for this molecule, O=C(c1ccncc1F)N1CCc2ncnc(-c3ccncc3)c2CC1 ?
Ans. 2.75

Qu. Fill in the blank: the reported cytotoxicity at 10 µM of Cc1cc2nc(C(C)C)cc(NCCc3ccncc3)n2n1 is ____.
Ans. -1.18

Qu. Entry CCNC(=O)C1CCN(Cc2csc(-c3ccc(C)o3)n2)CC1 has what cytotoxicity at 10 µM?
Ans. 6.26

Qu. Dear colleague, I am looking for the recorded cytotoxicity at 10 µM of the following molecule: CCn1ccnc1C1CCN(C(=O)C(O)c2ccc(OC)cc2)CC1 (configuration not stated)
Ans. 0.171

Qu. Sample O=C(c1ccoc1)N1CCCN(CC2CCOc3ccccc3C2)CC1 (configuration not stated) — what was its cytotoxicity at 10 µM?
Ans. 0.0531

Qu. Name the recorded cytotoxicity at 10 µM for Cc1cccc(CC(=O)NS(=O)(=O)c2ccc(F)c(F)c2)c1 .
Ans. -5.23

Qu. Find the recorded cytotoxicity at 10 µM belonging to NS(=O)(=O)c1ccc(NC(=O)CSc2ccc3c(c2)CCC3)cc1 and report it.
Ans. -9.06

Qu. Which cytotoxicity at 10 µM reading was recorded for the molecule CNC(=O)c1sc(C2CCCC2)nc1C ?
Ans. 13.1
